test system: Cytomegalovirus; experiment: Compound was evaluated for anti-herpesvirus activity against Cytomegalovirus (AD169) strain plaques in infected human fibroblast (MRC-5) cells.; assay type: functional, organism-based; details: Human betaherpesvirus 5, MRC5
measuredAttribute: pIC50
// returns pIC50 (minus log10 of molar concentration), number only

INSERT INTO results (smilesstructure, measurednumber) VALUES
  ('Nc1nc(O)c2ncn(OCC/C=C\P(=O)(O)O)c2n1', 3.75);

Now for a further compound.
Item Nc1nc2c(ncn2COCCO)c(=O)[nH]1 was tested on Cytomegalovirus; the reported pIC50 is 4.03

* * *

tested on: Visna-maedi virus; test: Compound was evaluated for anti-retrovirus activity against Visna virus (K184) strain in infected sheep choroid plexus cells; Not active; format: functional, organism-based
The source made the active and inactive calls. The calls are words filed in the database; no cut-off is given here.
measuredAttribute: MIC

INSERT INTO results (molecule, measuredattribute, result) VALUES
  ('Nc1ncnc2c1ncn2OC(/C=C/P(=O)(O)O)CO (stereo unspecified)', 'MIC', 'inactive'),
  ('Nc1ncnc2c1ncn2CC/C=C\P(=O)(O)O', 'MIC', 'inactive'),
  ('Nc1ccn(OC(/C=C/P(=O)(O)O)CO)c(=O)n1 (stereo unspecified)', 'MIC', 'inactive'),
  ('Nc1nc(O)c2ncn(OC(/C=C/P(=O)(O)O)CO)c2n1 (stereo unspecified)', 'MIC', 'inactive'),
  ('C=C(/C=C/P(=O)(O)O)Cn1cnc2c(O)nc(N)nc21', 'MIC', 'inactive');

Now consider the entry below.
For reference, reported MIC for Nc1nc2c(ncn2CC/C=C\P(=O)(O)O)c(=O)[nH]1 stands at inactive

* * *

tested on: Human alphaherpesvirus 3; assay: Compound was evaluated for anti-herpesvirus activity against Varicella Zoster virus (Ellen) strain; type: functional, organism-based
Note to self: IC50 under 20 µM means Condition met, ties and anything higher get Condition not met.

Here are 5 compounds together with their reported answers.
INSERT INTO measurements (compound, testedtarget, cat) VALUES
  ('Nc1nc(O)c2ncn(OCC/C=C/P(=O)(O)O)c2n1', 'Human alphaherpesvirus 3', 'Condition met'),
  ('Nc1nc(O)c2ncn(OCC(/C=C/P(=O)(O)O)CO)c2n1 (stereo unspecified)', 'Human alphaherpesvirus 3', 'Condition met'),
  ('Nc1nc(O)c2ncn(CC/C=C/P(=O)(O)O)c2n1', 'Human alphaherpesvirus 3', 'Condition not met'),
  ('Nc1nc(O)c2ncn(CC(/C=C/P(=O)(O)O)CO)c2n1 (stereo unspecified)', 'Human alphaherpesvirus 3', 'Condition met'),
  ('Nc1ncnc2c1ncn2OCCOCP(=O)(O)O', 'Human alphaherpesvirus 3', 'Condition not met');

Now turn to the next compound.
Below 20 µM on IC50? Entry Nc1ncnc2c1ncn2CC(/C=C/P(=O)(O)O)CO (stereo unspecified)
Condition met
